# Target: T1, EphB4 (receptor of Table 1) (Mus musculus (Mouse), UniProt P54761 16-539)
# T1 sequence: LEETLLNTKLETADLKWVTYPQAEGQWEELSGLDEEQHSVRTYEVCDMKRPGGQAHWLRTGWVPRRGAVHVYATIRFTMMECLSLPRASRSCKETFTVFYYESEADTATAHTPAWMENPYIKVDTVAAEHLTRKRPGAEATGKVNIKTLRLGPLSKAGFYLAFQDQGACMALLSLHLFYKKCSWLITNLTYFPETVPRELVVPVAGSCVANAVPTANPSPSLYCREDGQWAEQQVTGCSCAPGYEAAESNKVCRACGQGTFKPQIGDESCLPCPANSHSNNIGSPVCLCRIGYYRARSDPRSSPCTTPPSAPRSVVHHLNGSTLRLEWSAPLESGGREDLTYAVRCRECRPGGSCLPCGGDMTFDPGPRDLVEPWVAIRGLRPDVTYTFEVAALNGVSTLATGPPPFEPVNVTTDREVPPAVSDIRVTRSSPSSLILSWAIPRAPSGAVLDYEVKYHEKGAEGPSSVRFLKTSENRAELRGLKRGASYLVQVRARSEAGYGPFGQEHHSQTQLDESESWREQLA
# Measurement notes: inhibition of ephrin-B2 AP binding to EphB4 (panning receptor)
pIC50: −log10 of the molar value.

Binder: EWYMKFPPEHYF (Panned on EphB4) [EWYMKFPPEHYF peptide (SEQ ID NO:19)]
pIC50: < 3.22

Binder: FSPQGPAARNFA (Panned on EphB4) [FSPQGPAARNFA peptide (SEQ ID NO:25)]
pIC50: < 3.22

Binder: DALNDWLLFRPW (Panned on EphB4) [DALNDWLLFRPW peptide (SEQ ID NO:20)]
pIC50: < 4.00

Binder: DHNHNLYNPWRL (Panned on EphB4) [DHNHNLYNPWRL peptide (SEQ ID NO:21)]
pIC50: ~3.70

Binder: NPVIGPIQRAWT (Panned on EphB4) [NPVIGPIQRAWT peptide (SEQ ID NO:27)]
pIC50: < 3.30
